System: SR leukemia
Experiment: NCI-60 one-dose screen, 48 h (100 = growth as untreated, 0 = no growth, -100 = all killed)
Details: 10 µM unless noted
The panel holds about 83,000 compounds, 20% with a hit somewhere; the sample as a whole holds those more often.
readoutLabel: growth (%)
Output spec: scalar in %, unitless text.

Task: Param item = Cc1ccc(NC(=S)NNC(=S)Nc2ccc(C)cc2)cc1 ; retrieve measured growth.
Result: 90

Task: Then what about the compound N/C(=N\C(N)=N\c1nc2ccccc2s1)c1ccncc1Cl ?
Result: 39.4

Task: Then what about the compound CS(=O)(=O)c1ncc(-c2ccccc2)cn1 ?
Result: 70.9

Task: Then what about the compound CCc1nn2c(C)cc(C)nc2c1Cc1ccc(/C=C/CN2CCN(CCOCCOCCN3CCN(C/C=C/c4ccc(Cc5c(CC)nn6c(C)cc(C)nc56)cc4)CC3)CC2)cc1 ?
Result: -30.9

Task: Then what about the compound Cc1cc(C(NC(=O)CCCCCNc2cccc3c2C(=O)N(C2CCC(=O)NC2=O)C3=O)c2ccc3c(c2)OC(F)(F)O3)c(O)c2ncccc12 (stereo not drawn) ?
Result: 26.2

Task: Then what about the compound Cc1cc2ncc(-c3cc4ccccc4c(N4CCN(C)CC4)n3)nc2cc1C ?
Result: -39.9

Task: Then what about the compound COc1ccc(NC2=C(Cl)C(=O)c3nc(C)ccc3C2=O)cc1OC ?
Result: 0.922

Task: Then what about the compound CCO/C=N/C1=C(C#N)C(c2ccc(OC)cc2)c2sc3c(CC)cccc3c2O1 (stereo not drawn) ?
Result: 20.1

Task: Then what about the compound Cc1cc(C)n(C(=O)c2sc(=S)n(-c3ccccc3)c2N=Nc2c(N)n[nH]c2N)n1 ?
Result: 86.4

Task: Then what about the compound Cc1ccc(-c2cc3nc(C(Cl)Cl)nc(-c4ccco4)n3n2)cc1 ?
Result: 82.4

Task: Then what about the compound C#Cc1nc(C(=O)NCCC(=O)Nc2ccc(NC(=O)c3ccc(/C=C/C(=O)c4nccn4C)cc3)cc2)cs1 ?
Result: 0.901

Task: Then what about the compound CC1(C)CC[C@]2(C(=O)O)CC[C@]3(C)C(=CC[C@@H]4[C@@]5(C)CC/C(=N\OCCC#N)C(C)(C)[C@@H]5CC[C@]43C)[C@@H]2C1 ?
Result: 103

Task: Then what about the compound O=C1CCC(N2C(=O)c3ccc(NS(=O)(=O)c4ccccc4OC(F)(F)F)cc3C2=O)C(=O)N1 (stereo not drawn) ?
Result: 77.4

Task: Then what about the compound O=C(CN1CCN(c2cc(=O)n(-c3ccccc3)c3ccccc23)CC1)Nc1nc(-c2ccc(Cl)cc2)cs1 ?
Result: 56.8

Task: Then what about the compound CCN(CC)c1ccc(NC2=C(Cl)C(=O)c3nc(C)ccc3C2=O)cc1 ?
Result: 7.24

Task: Then what about the compound CCOC(=O)c1c(Nc2ccccc2)nn2c(-c3cccs3)ccnc12 ?
Result: 63.5

Task: Then what about the compound NC(N)=Nc1ccc(Nc2cccc(Nc3ccc(Cl)c(C(F)(F)F)c3)c2)cn1 ?
Result: -31.7

Task: Then what about the compound CC1=CC(=O)C2=C(C)CC(OC(=O)CCc3ccccc3)[C@@H]3[C@H](OC(=O)[C@@H]3C)[C@@H]12 (stereo partly drawn) ?
Result: 86.8

# credit: PubChem BioAssay (NCI)
